Where do these numbers come from? They come from patent US6723753B2.

Biological target: CETP (Homo sapiens)
Sequence (P11597 18-493): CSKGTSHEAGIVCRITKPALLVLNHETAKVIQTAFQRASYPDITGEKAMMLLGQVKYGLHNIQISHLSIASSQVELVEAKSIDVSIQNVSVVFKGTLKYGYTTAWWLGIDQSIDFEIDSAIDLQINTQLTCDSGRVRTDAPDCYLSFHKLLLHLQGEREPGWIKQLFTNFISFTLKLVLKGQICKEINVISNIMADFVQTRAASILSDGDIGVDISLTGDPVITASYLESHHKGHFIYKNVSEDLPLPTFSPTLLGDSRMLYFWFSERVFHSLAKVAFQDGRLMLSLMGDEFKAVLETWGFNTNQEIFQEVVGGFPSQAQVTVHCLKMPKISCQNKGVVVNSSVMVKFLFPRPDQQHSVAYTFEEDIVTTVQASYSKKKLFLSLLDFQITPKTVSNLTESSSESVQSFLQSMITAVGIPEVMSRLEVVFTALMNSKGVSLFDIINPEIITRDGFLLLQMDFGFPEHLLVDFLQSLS
Test: Assay of CETP Inhibition in Human Plasma
Type: biochemical
Parameters: Blood was obtained from healthy volunteers, recruited from the personnel of Monsanto Company; from tissue; host or cells: human EDTA plasma pool from healthy volunteers
Conditions: Inhibition of CETP activity in human plasma assay; transfer of [3H]CE from HDL to VLDL and LDL; read-out: IC50
assay_endpoint: pIC50
In plain terms, pIC50 is the concentration in mol/L turned into minus its base-10 logarithm.

These solved cases illustrate the format of a correct answer.
[
  {
    "molecule": "O=[N+]([O-])c1ccc(Sc2cccc(N(Cc3cccc(OC(F)(F)C(F)F)c3)CC(O)C(F)(F)F)c2)cc1 (stereo not shown)",
    "value_reported": 4.43
  },
  {
    "molecule": "O=[N+]([O-])c1cc(Br)ccc1Oc1cccc(N(Cc2cccc(OC(F)(F)C(F)F)c2)CC(O)C(F)(F)F)c1 (stereo not shown)",
    "value_reported": 4.89
  }
]

Now take the following molecule into account.
Exam item: Given CCCCOc1ccc(Oc2cccc(N(Cc3cccc(OC(F)(F)C(F)F)c3)CC(O)C(F)(F)F)c2)cc1 (stereo not shown) , state its recorded pIC50.
Marked response: 4.59

###

Target: CETP (Homo sapiens, UniProt P11597)
Assay: Assay of CETP Inhibition using Purified Components (Reconstituted Buffer Assay)
Type: biochemical
Set-up: made in house; host or cells: CHO cells (serum-free conditioned medium)
Conditions: Inhibition of CETP activity in reconstituted buffer assay; transfer of [3H]CE from HDL to LDL; read-out: IC50
pIC50: −log10 of the molar value.
Threshold rule: pIC50 greater than or equal to 5 is yes (1); below that, no (0).

Exam item: Would you say CC(C)(C)NC(=O)c1cccc(N(Cc2cccc(OC(F)(F)C(F)F)c2)CC(O)C(F)(F)F)c1 (stereo not shown) shows pIC50 at minimum 5?
Marked response: yes (1)

Exam item: Would you say COc1ccc(N(Cc2cccc(OC(F)(F)F)c2)CC(O)C(F)(F)F)cc1OC (stereo not shown) shows pIC50 at minimum 5?
Marked response: no (0)

Exam item: Would you say OC(CN(Cc1cccc(OC(F)(F)C(F)F)c1)c1cccc(-c2cc(Cl)cc(Cl)c2)c1)C(F)(F)F (stereo not shown) shows pIC50 at minimum 5?
Marked response: yes (1)

Exam item: Would you say OC(CN(Cc1cc(C(F)(F)F)cc(C(F)(F)F)c1)c1cccc(F)c1)C(F)(F)F (stereo not shown) shows pIC50 at minimum 5?
Marked response: no (0)

Exam item: Would you say OC(CN(Cc1ccc(OC(F)(F)F)cc1)c1cccc(Cl)c1)C(F)(F)F (stereo not shown) shows pIC50 at minimum 5?
Marked response: no (0)
